Kindly state AC50 for each of the entries shown.

Request - read-out AC50 | tested on UniProt:P35367 | compound CCSc1ccc2c(c1)N(CCCN1CCN(C)CC1)c1ccccc1S2 [THIETHYLPERAZINE]
0.17 µM

Param readout= AC50; system= UniProt:P35367; entry= COC(=O)N[C@@H](C)CNc1nccc(-c2cn(C(C)C)nc2-c2cc(Cl)cc(NS(C)(=O)=O)c2F)n1 [ENCORAFENIB] ; returns value.
Sequence (P35367 whole entry): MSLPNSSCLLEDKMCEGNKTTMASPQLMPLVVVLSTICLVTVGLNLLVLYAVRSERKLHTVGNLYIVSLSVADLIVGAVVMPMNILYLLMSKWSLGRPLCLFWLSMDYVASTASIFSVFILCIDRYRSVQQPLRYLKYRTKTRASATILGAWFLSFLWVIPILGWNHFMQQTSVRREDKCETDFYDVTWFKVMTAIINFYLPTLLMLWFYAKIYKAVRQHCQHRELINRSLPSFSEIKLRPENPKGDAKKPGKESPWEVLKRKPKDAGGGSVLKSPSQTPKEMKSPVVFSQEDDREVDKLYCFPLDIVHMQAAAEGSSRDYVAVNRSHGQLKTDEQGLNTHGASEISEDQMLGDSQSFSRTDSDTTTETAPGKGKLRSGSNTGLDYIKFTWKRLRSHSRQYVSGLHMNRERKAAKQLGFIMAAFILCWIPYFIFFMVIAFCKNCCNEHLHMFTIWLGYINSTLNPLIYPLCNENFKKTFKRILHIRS
> 30 µM

For UniProt:P35367, provide AC50 of CO[C@@]1(NC(=O)Cc2cccs2)C(=O)N2C(C(=O)O)=C(COC(N)=O)CS[C@@H]21 [CEFOXITIN] please.
> 30 µM

Lab note: need AC50 with UniProt:P35367 for entry Clc1ccc(C(Cn2ccnc2)OCc2ccc(Sc3ccccc3)cc2)c(Cl)c1 (stereo not drawn) [FENTICONAZOLE] , please look it up.
> 30 µM

Please state recorded AC50 (tested on UniProt:P35367) of OCCN1CCN(CC/C=C2/c3ccccc3Sc3ccc(Cl)cc32)CC1 [ZUCLOPENTHIXOL]
0.028 µM

Kindly state the measured AC50 obtained for C[C@H]1Oc2cc(cnc2N)-c2c(nn(C)c2C#N)CN(C)C(=O)c2ccc(F)cc21 [LORLATINIB] with UniProt:P35367.
> 30 µM

Recorded AC50 for O=C(O)CSCC(=O)NC1CCSC1=O (stereo not drawn) [ERDOSTEINE] with UniProt:P35367, please?
> 30 µM

Give UniProt:P35367 AC50 for CCCN(CCC)CCc1cccc2c1CC(=O)N2 [ROPINIROLE]
14 µM

Reference source: ChEMBL document CHEMBL5291721
